Assay: IV pharmacokinetics in Sprague Dawley rats
Format: in vivo
Settings: Sprague-Dawley, rat, in vivo, iv, 2 mg/kg, normal saline
# Yes = half-life below 40 min (exclusive); No = half-life at/above 40 min

# COMPOUND, CLASS_ASSIGNMENT
records = [
    ("O=C1NCC=CCC12CC(F)(F)CN2 (single isomer, unassigned) [GL-2]", "No"),
    ("O=C1NCC=CC[C@]12CCCN2 [GA, (R)-1,7-diazaspiro[4.6]undec-9-en-6-one]", "No"),
    ("CC(=O)N1CCCC12CC=CCNC2=O (single isomer, unassigned) [GG-2]", "Yes"),
    ("CC(C)CN1CCCC12CC=CCNC2=O (single isomer, unassigned) [GI-2]", "Yes"),
    ("CC(C)C(=O)N1CCCC12CC=CCNC2=O (single isomer, unassigned) [GH-2]", "Yes"),
]

Shifting focus to the compound that follows.
Asked: State whether 40 min exceeds half-life recorded for O=C1NCCCC12CCCCN2 (single isomer, unassigned) [AX, 1,8-diazaspiro[5.5]undecan-7-one] .
Given back: No

====

Assay: Microsomal stability (Rat)
Assay type: in vitro ADME
Conditions: after 60 minutes
PARAMETER: Microsomal (Rat): percent of compound remaining
Answer with the value and then the unit.

Worked examples follow.
# MOLECULE, RESULT
measured = [
    ("CC(C)CN1CCCC12CC=CCNC2=O (single isomer, unassigned) [GI-1]", "69%"),
    ("CC(C)C(=O)N1CCCC12CC=CCNC2=O (single isomer, unassigned) [GH-1]", "100%"),
    ("O=C1NCCCC12CCCN2 (stereo not shown) [EU-2, 1,7-diazaspiro[4.5]decan-6-one]", "94%"),
]

Attention now turns to another entry.
Asked: Give the measured Microsomal (Rat): percent of compound remaining for O=C1NCCCCC12CCCCN2 (single isomer, unassigned) [AZ, 1,8-diazaspiro[5.6]dodecan-7-one]
Given back: 91%
